method_description: Concentration of (S)-methoprene on dog hair following oral administration (HPLC)
Assay type: in vivo, dogs
assay_context: random-bred, dog, hair, po, 50 mg/kg, Dog #528; oral 50 mg/kg one time on Day 0; day 10
experimental_readout: concentration at 10 day (ng/g)
Use ng/g as the unit, but write only the number.

Data request: Report concentration at 10 day for COC(C)(C)CCC[C@H](C)C/C=C/C(C)=C/C(=O)OC(C)C [(S)-Methoprene] please.
Data returned: 126

// provenance: patent EP0923292B1
